Overview of recorded T/C for various compounds
Tested on: L1210 leukemia ip in BDF1 mice, survival T/C
Assay: NCI In Vivo Anticancer Drug Screen. Data for tumor model L1210 Leukemia (intraperitoneal) in B6D2F1 (BDF1) mice
Details: endpoint: mean survival time; dose: 400.0 mg/kg/injection; schedule: Q01DX001 (ip); vehicle: Klucel (hydroxypropylcellulose) (HPC); higher = longer survival
Toxic doses and inconclusive results are not listed.
measured-endpoint: T/C

1) O=NC1C(Cl)C2CC1C1COCC21 (centres undefined) :: 89 % of control
2) CC(=O)N(C(=O)c1ccccc1)c1ccc(NS(=O)(=O)c2ccc(C)cc2)cc1 :: 100 % of control
3) O=NN(c1ccccc1)c1ccccc1 :: 87 % of control
4) Cc1cc(C)c(Br)cc1N :: 102 % of control
5) Cc1cc(C)c(N(C)C(=O)CCC(=O)O)c(C)c1Br :: 104 % of control
6) O=C(c1ccccc1)C1(c2ccccc2)OC1(C(=O)c1ccccc1)c1ccccc1 (centres undefined) :: 87 % of control
7) CC(=O)c1cccc(NC(=O)Nc2nccs2)c1 :: 96 % of control
8) CC1(C)CN=C(c2ccc([N+](=O)[O-])cc2)S1 :: 100 % of control
9) Clc1ccc2c(c1)C(N1CCOCC1)c1cc(Cl)cc(Cl)c1-2 (centres undefined) :: 96 % of control
10) Cc1cccc(NC(=O)Nc2cc(C)on2)c1 :: 95 % of control
11) O=C(C1CC1)C1OC1c1ccccc1 (centres undefined) :: 94 % of control
12) CCOC(=O)CCc1c(C(=O)OCC)[nH]c(C)c1C(=O)C(=O)OC :: 90 % of control
13) COc1ccccc1-n1c(=O)c(N=Nc2ccc(Br)cc2)c(O)n(-c2ccccc2C)c1=S :: 98 % of control
14) O=C(NC1CCCCC1)c1ccc(Cl)cc1 :: 105 % of control

###

System: L1210 leukemia ip in BDF1 mice, survival T/C
Test: NCI In Vivo Anticancer Drug Screen. Data for tumor model L1210 Leukemia (intraperitoneal) in B6D2F1 (BDF1) mice
Conditions: endpoint: mean survival time; dose: 50.0 mg/kg/injection; schedule: Q04DX002 (ip); vehicle: Klucel (hydroxypropylcellulose) (HPC); higher = longer survival
Toxic doses and inconclusive results are not listed.
Overview of recorded T/C for various compounds
measured-endpoint: T/C

1) Cc1cc(C)c(S(N)(=O)=O)c(C)c1 :: 94 % of control
2) O=C(CCc1ccc(Cl)cc1)Nc1ccccc1 :: 86 % of control
3) COC1OC2COC(C2OS(=O)(=O)c2ccc(C)cc2)C1OS(=O)(=O)c1ccc(C)cc1 (stereo not drawn) :: 94 % of control
4) CC(=O)NC(C)c1ccccc1 (stereo not drawn) :: 108 % of control
5) NC(CCSSCCC(N)C(=O)O)C(=O)O (stereo not drawn) :: 103 % of control
6) O=S1(=O)Cc2ccccc2-c2ccccc2C1Cl (stereo not drawn) :: 100 % of control
7) Cn1c(Cl)c(C=O)c2ccccc21 :: 90 % of control
8) CN(C)C(=S)S/C=C\C(=O)O :: 90 % of control

###

Tested on: L1210 leukemia ip in BDF1 mice, survival T/C
Experiment: NCI In Vivo Anticancer Drug Screen. Data for tumor model L1210 Leukemia (intraperitoneal) in B6D2F1 (BDF1) mice
Conditions: endpoint: mean survival time; dose: 400.0 mg/kg/injection; schedule: Q04DX003 (ip); vehicle: saline; higher = longer survival
Inconclusive results and toxic doses are left out.
measured-endpoint: T/C

1. CC(=O)OCCNc1ccc([N+](=O)[O-])cc1[N+](=O)[O-] :: 95 % of control
2. CC(C)C1(C(=O)O)SCCCS1 :: 98 % of control
3. NC(=O)C[n+]1cccc(C(=O)Nc2ccccc2)c1 :: 87 % of control
4. CCCCCc1ccc(C(C)=O)cc1 :: 114 % of control
5. OCC1OC(Oc2ccccc2)C(O)C(O)C1O (configuration not stated) :: 100 % of control
6. O=C(O)CNC(=O)c1ccc(C(=O)NCC(=O)O)cc1 :: 97 % of control
7. [O-][N+](=C1c2ccccc2-c2ccccc21)c1ccccc1 :: 94 % of control

###

Overview of recorded T/C for various molecules
Tested on: L1210 leukemia ip in BDF1 mice, survival T/C
Test: NCI In Vivo Anticancer Drug Screen. Data for tumor model L1210 Leukemia (intraperitoneal) in B6D2F1 (BDF1) mice
Settings: endpoint: mean survival time; dose: 20.0 mg/kg/injection; schedule: Q01DX001 (ip); vehicle: saline; higher = longer survival
Toxic doses and inconclusive results are not listed.
measured-endpoint: T/C

1. C1CCC(C2CCCC[N-]2)[N-]C1.C1CCC(C2CCCC[N-]2)[N-]C1.C1CCC(C2CCCC[N-]2)[N-]C1.[Fe+6] (stereo not drawn) :: 104 % of control
2. O=C1C(N2CCCCC2)=C(N2CC2)C(=O)C(N2CCCCC2)=C1N1CC1 :: 99 % of control
3. c1ccc(CCN2CCCCC2)cc1 :: 116 % of control
4. Cc1csc[n+]1Cc1ccc([N+](=O)[O-])cc1 :: 102 % of control
5. CCOC(=O)c1[nH]c(=S)[nH]c1C(=O)OCC :: 104 % of control
6. Nc1nc2c(=O)[nH]cnc2n1C1OC(CO)C(O)C1O (stereo not drawn) :: 102 % of control
7. COc1ccc2nc3ccccc3c(NCCCN(C)C)c2c1 :: 107 % of control
8. CCCCCN(CCCCC)CC(O)C1c2ccccc2Cc2ccccc21 (stereo not drawn) :: 102 % of control

###

System: L1210 leukemia ip in BDF1 mice, survival T/C
Assay: NCI In Vivo Anticancer Drug Screen. Data for tumor model L1210 Leukemia (intraperitoneal) in B6D2F1 (BDF1) mice
Settings: endpoint: mean survival time; dose: 25.0 mg/kg/injection; schedule: Q01DX009 (ip); vehicle: saline; higher = longer survival
Toxic doses and inconclusive results are not listed.
Overview of recorded T/C for various molecules
measured-endpoint: T/C

1) CN1CC=C(/C=C/c2cccc3ccccc23)CC1 :: 100 % of control
2) Cc1ccc(C(=O)C[S+](C)C)c(C)c1 :: 98 % of control
3) CCN(CC)Cc1ccc(N)cc1 :: 110 % of control
4) O=C(O)/C=C\Cl :: 104 % of control
5) NC(CCl)=NCCCCN=C(N)CCl :: 101 % of control
6) CCCCCCCCN1CCCNCC1 :: 96 % of control
7) CC[P+](CC)(CC)c1ccccc1 :: 110 % of control
8) COc1cc([C@@H]2c3cc4c(cc3C[C@H]3COC(=O)[C@@H]32)OCO4)cc(OC)c1OC :: 116 % of control
9) C[C@@H]1C[C@H]2[C@@H]3CCC4=CC(=O)C=C[C@]4(C)[C@@]3(F)[C@@H](O)C[C@]2(C)[C@@]1(O)C(=O)CO :: 96 % of control

###

Tested on: L1210 leukemia ip in BDF1 mice, survival T/C
Test: NCI In Vivo Anticancer Drug Screen. Data for tumor model L1210 Leukemia (intraperitoneal) in B6D2F1 (BDF1) mice
Details: endpoint: mean survival time; dose: 100.0 mg/kg/injection; schedule: Q01DX001 (ip); vehicle: carboxymethylcellulose (CMC); higher = longer survival
Inconclusive results and toxic doses are left out.
Overview of recorded T/C for various compounds
measured-endpoint: T/C

1. COc1ccc(/C=N/Nc2nnc(N/N=C/c3ccc(OC)c(O)c3)c3ccccc23)cc1O :: 103 % of control
2. O=[N+]([O-])c1ccc(N=Nc2ccc3c(c2)-c2ccccc2C3=P(c2ccccc2)(c2ccccc2)c2ccccc2)cc1 :: 108 % of control
3. CC1(C)OC(COC(=O)c2ccccc2)C2OC(C)(C)OC(COC(=O)c3ccccc3)C2O1 (stereo unspecified) :: 93 % of control
4. O=C1c2ccccc2-c2cc(F)cc(F)c21 :: 102 % of control
5. O=C(O)c1ccc(CNc2ccc(C(=O)CCl)cc2)cc1 :: 102 % of control
6. CCOC(=O)C(F)=C(CF)CF :: 111 % of control

###

Tested on: L1210 leukemia ip in BDF1 mice, survival T/C
Test: NCI In Vivo Anticancer Drug Screen. Data for tumor model L1210 Leukemia (intraperitoneal) in B6D2F1 (BDF1) mice
Details: endpoint: mean survival time; dose: 400.0 mg/kg/injection; schedule: Q04DX002 (ip); vehicle: saline with Tween-80; higher = longer survival
Toxic doses and inconclusive results are not listed.
measured-endpoint: T/C

1. CCCCCCCCCC(=O)Nc1c(C)cccc1C :: 94 % of control
2. CCOC(=O)C(C(=S)Nc1ccccc1)=S(C)C :: 91 % of control
3. NCC(=O)N/C(=C/c1ccccc1)C(=O)NCC(=O)O :: 97 % of control
4. CC(C)(C)OOC(=O)CCCl :: 101 % of control
5. COc1ccc(-c2c(C)nc(N)nc2OC)cc1 :: 96 % of control
6. CCOC(=O)COCC(=O)OCC :: 102 % of control
7. CCCC(=O)N1CCCCCC1 :: 95 % of control
8. Oc1ccc2cc(Br)ccc2c1-c1c(O)ccc2cc(Br)ccc12 :: 87 % of control
9. CCCCCCCCCCCCCCCCCCSC(C)(C)SCCCCCCCCCCCCCCCCCC :: 92 % of control
10. O=C1CC(C(=O)O)C2(CCCCC2)O1 (stereo not given) :: 101 % of control
11. CCOCCOCCOC(C)Oc1ccc(Cl)cc1Cl (stereo not given) :: 100 % of control
12. O=C(O)CNC(=O)c1cccc(Cl)c1 :: 95 % of control
13. O=c1[nH]c(=S)[nH]c2c1CP(=S)(c1ccccc1)CC2 (stereo not given) :: 100 % of control
14. [Si]c1cccc2ccccc12 :: 101 % of control
15. CC(=O)C1(Cl)CCC(C(C)(C)C)CC1 (stereo not given) :: 103 % of control
